Measurement record for Carbonic anhydrase 4 (Bos taurus); quantity recorded: log10(Ki).
Parameter value (number): base-10 log of Ki in nM.

Some compounds with recorded log10(Ki):
>>> measured("NS(=O)(=O)c1ccc(CC/N=C/c2ccncc2)cc1")
1.08
>>> measured("Cc1ccc(S(=O)(=O)NC(=O)Oc2ccccc2/C=N/CCc2ccc(S(N)(=O)=O)cc2)cc1")
2.08
>>> measured("NS(=O)(=O)c1ccc(CC/N=C/c2cccc([N+](=O)[O-])c2)cc1")
2.15
>>> measured("NS(=O)(=O)c1ccc(CC/N=C/c2ccccc2OC(=O)NS(=O)(=O)c2ccccc2)cc1")
1.04
>>> measured("NS(=O)(=O)c1nnc(NC(=O)Nc2ccc(Cl)c(Cl)c2)s1")
0.90
>>> measured("Cn1cccc1/C=N/CCc1ccc(S(N)(=O)=O)cc1")
0.90

Now consider the entry below.
May I ask what log10(Ki) has been recorded for NS(=O)(=O)c1ccc(CC/N=C/c2ccccc2OC(=O)NS(=O)(=O)c2ccc(Cl)cc2)cc1 ?
2.20
